This section lists IC50 readings for p38 MAP Kinase a (Homo sapiens, UniProt Q16539).

Worked examples follow.
compound: CC(C)C[C@H](NCCCOc1cc(F)c(-n2c(N)c(C(=O)c3ccc(F)cc3F)ccc2=O)c(F)c1)C(=O)OCCN(C)C
resultType: IC50
observedResult: 0.1 to 1 µM
--
compound: CC(C)C[C@H](NCCCOc1ccc(-n2c(N)c(C(=O)c3ccc(F)cc3)ccc2=O)cc1)C(=O)O
resultType: IC50
observedResult: < 0.1 µM
--
compound: CC(C)(C)OC(=O)[C@@H](NCCc1ccc(-n2c(N)c(C(=O)c3ccc(F)cc3)ccc2=O)cc1)c1ccccc1
resultType: IC50
observedResult: 0.1 to 1 µM
--
compound: CC(C)C[C@H](NCc1ccc(-n2c(N)c(C(=O)c3ccc(F)cc3F)ccc2=O)cc1)C(=O)OC1CCCC1
resultType: IC50
observedResult: < 0.1 µM
--
compound: Nc1c(C(=O)c2ccc(F)cc2)ccc(=O)n1-c1c(F)cc(OC2CCC(N[C@H](C(=O)O)c3ccccc3)CC2)cc1F (stereo partly shown)
resultType: IC50
observedResult: < 0.1 µM
--
compound: CC(C)C[C@H](NC(=O)COc1ccc(-n2c(N)c(C(=O)c3ccc(F)cc3)ccc2=O)cc1)C(=O)OC1CCCC1
resultType: IC50
observedResult: 0.1 to 1 µM

Inquiry: Return IC50 for the following compound: CC(C)C[C@H](NCCCOc1cc(F)c(-n2c(N)c(C(=O)c3ccc(F)cc3F)ccc2=O)c(F)c1)C(=O)OC(C)(C)C
Reply text: < 0.1 µM

Data origin, for the record: patent US8044211B2
